List of pKi values.
Test target: GCN2 kinase (Homo sapiens, UniProt Q9P2K8)
Sequence (Q9P2K8 whole entry): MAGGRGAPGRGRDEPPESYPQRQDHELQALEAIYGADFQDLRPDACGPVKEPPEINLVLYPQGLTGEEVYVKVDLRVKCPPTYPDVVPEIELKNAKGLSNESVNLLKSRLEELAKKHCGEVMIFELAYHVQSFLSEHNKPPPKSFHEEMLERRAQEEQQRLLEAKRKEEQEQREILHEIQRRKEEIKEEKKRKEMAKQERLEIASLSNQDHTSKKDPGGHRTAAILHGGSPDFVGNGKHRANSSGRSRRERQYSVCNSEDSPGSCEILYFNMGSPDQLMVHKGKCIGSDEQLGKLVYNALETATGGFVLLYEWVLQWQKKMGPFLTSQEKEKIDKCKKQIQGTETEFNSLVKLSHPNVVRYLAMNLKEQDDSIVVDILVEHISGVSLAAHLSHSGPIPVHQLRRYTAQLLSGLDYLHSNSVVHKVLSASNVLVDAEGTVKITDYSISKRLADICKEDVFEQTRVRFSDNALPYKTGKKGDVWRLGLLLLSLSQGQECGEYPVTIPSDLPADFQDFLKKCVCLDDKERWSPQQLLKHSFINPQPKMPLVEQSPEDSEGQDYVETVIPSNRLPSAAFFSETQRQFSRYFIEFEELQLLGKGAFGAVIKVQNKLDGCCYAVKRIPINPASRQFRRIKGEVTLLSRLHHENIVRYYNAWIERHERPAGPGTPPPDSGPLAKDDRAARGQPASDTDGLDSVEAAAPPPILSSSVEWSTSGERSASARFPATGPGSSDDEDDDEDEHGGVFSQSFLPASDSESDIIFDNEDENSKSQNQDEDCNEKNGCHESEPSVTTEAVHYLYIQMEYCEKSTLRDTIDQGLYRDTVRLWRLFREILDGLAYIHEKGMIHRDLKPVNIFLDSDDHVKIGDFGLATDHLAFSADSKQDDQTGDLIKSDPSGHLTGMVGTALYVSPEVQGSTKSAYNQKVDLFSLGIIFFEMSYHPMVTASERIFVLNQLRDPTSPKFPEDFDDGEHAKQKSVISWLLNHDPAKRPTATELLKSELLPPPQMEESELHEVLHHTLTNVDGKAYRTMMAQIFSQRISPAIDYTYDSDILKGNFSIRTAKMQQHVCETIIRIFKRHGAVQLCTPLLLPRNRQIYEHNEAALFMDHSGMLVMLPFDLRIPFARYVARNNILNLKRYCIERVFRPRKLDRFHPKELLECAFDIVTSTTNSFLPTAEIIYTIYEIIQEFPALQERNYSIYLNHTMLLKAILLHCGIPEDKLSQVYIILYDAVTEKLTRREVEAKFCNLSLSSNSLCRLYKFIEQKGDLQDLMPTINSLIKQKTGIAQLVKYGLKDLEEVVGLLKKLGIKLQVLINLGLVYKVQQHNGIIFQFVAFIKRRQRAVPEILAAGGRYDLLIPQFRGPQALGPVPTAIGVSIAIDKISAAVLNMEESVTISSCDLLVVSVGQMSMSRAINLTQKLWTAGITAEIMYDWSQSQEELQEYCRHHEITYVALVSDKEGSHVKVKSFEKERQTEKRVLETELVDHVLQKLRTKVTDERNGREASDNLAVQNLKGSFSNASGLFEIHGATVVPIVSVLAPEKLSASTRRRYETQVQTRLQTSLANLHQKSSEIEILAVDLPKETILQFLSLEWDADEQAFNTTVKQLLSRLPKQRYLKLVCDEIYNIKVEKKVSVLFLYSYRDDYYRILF
Run description: GCN2 enzyme inhibition assay (Transcreener ADP2 fluorescence polarization)
Assay type: biochemical
Condition description: Enzyme activity for compounds of Formula IV; Ki(app), 280 μM ATP, 25° C.
pKi: −log10 of the molar value.

{"columns": ["Compound", "pKi"],
 "data": [
  ["FC(F)(F)c1cn2c(-c3nccc(N4CCCC(c5ncno5)C4)n3)cnc2cn1 (stereo not shown)", "6.00 to 7.00"],
  ["C[S+]([O-])CC1CCN(c2ccnc(-c3cnc4cnc(C(F)(F)F)cn34)n2)C1 (stereo not shown)", "6.00 to 7.00"],
  ["FC(F)c1cn2c(-c3nccc(N4CCc5ccccc5C4)n3)cnc2cn1", "6.00 to 7.00"],
  ["OC1CCC2CN(c3ccnc(-c4cnc5cnc(C(F)F)cn45)n3)CC2C1 (stereo not shown)", "6.00 to 7.00"],
  ["Cc1cc(N2CC(C)NC(c3cn[nH]c3)C2C)nc(-c2cnc3cnc(C(F)(F)F)cn23)n1 (single isomer, unassigned) [IV-670]", "> 8.00"],
  ["OC1CCN(C2CCN(c3ccnc(-c4cnc5cnc(C(F)(F)F)cn45)n3)C2)CC1 (stereo not shown)", "6.00 to 7.00"],
  ["CC1C(c2cn[nH]c2)NCCN1c1ccnc(-c2cnc3cnc(C(F)F)cn23)n1 (stereo not shown)", "7.00 to 8.00"],
  ["CS(C)(=O)=N[C@@H]1C[C@@H](c2cn[nH]c2)CN(c2ccnc(-c3cnc4cnc(C(F)(F)F)cn34)n2)C1 (racemic)", "6.00 to 7.00"],
  ["CC1CN(c2ccnc(-c3cnc4cnc(C(F)(F)F)cn34)n2)C(C)C(c2cnc[nH]2)N1 (single isomer, unassigned) [IV-549]", "6.00 to 7.00"],
  ["CS(C)(=O)=NC1CC(c2cn[nH]c2)CN(c2ccnc(-c3cnc4cnc(C(F)(F)F)cn34)n2)C1 (single isomer, unassigned) [IV-399]", "> 8.00"],
  ["NCS(=O)(=O)c1cccc(-c2ccnc(-c3cnc4cnc(C(F)F)cn34)n2)c1", "6.00 to 7.00"],
  ["NC(=O)c1cn2c(-c3cccc(N4CCCC(CO)C4)n3)cnc2cn1 (stereo not shown)", "7.00 to 8.00"],
  ["OCCC1CCCCN1c1ccnc(-c2cnc3cnc(C(F)(F)F)cn23)n1 (stereo not shown)", "6.00 to 7.00"],
  ["CS(=O)(=O)N1CCC2CCN(c3ccnc(-c4cnc5cnc(C(F)F)cn45)n3)CC21 (stereo not shown)", "6.00 to 7.00"],
  ["Fc1n[nH]cc1C1CCN(c2ccnc(-c3cnc4cnc(C(F)(F)F)cn34)n2)C1 (single isomer, unassigned) [IV-562]", "> 8.00"],
  ["O=C(N[C@@H]1CCCN(c2ccnc(-c3cnc4cnc(C(F)(F)F)cn34)n2)C1)c1cn[nH]c1", "6.00 to 7.00"]
]}

###

List of pIC50 values.
Test target: intracellular GCN2 (phosphorylation of the GCN2 substrate eIF2α) (Homo sapiens)
Run description: GCN2 cellular inhibition assay (AlphaScreen SureFire P-eIF2α Ser51, borrelidin-treated U2OS cells)
Type: cell-based
Condition description: compounds of Formula II; biomarker assay, phosphorylated eIF2α Ser51 in borrelidin-treated U2OS cells
pIC50: −log10 of the molar value.

{"columns": ["Compound", "pIC50"],
 "data": [
  ["CN(C)CC(=O)N(CC1CCCN(c2cc(-c3cnc4ccc(C(F)F)nn34)ncn2)C1)S(C)(=O)=O (stereo not shown)", "> 6.30"],
  ["Clc1ccc2ncc(-c3ccnc(N4CCC5CNCC5C4)c3)n2n1 (stereo not shown)", "5.30 to 6.30"],
  ["CN(CC1CC(O)CN(c2cc(-c3cnc4ccc(C(F)F)nn34)ncn2)C1)S(C)(=O)=O (stereo not shown)", "5.30 to 6.30"],
  ["CNc1cc(-c2cnc3ccc(C(F)F)nn23)cc(N2CCCC(CNS(C)(=O)=O)C2)n1 (stereo not shown)", "5.30 to 6.30"]
]}

###

List of IC50 values.
Test target: intracellular GCN2 (phosphorylation of the GCN2 substrate eIF2α) (Homo sapiens)
Run description: GCN2 cellular inhibition assay (AlphaScreen SureFire P-eIF2α Ser51, borrelidin-treated U2OS cells)
Format: cell-based
Condition description: compounds of Formula IV; biomarker assay, phosphorylated eIF2α Ser51 in borrelidin-treated U2OS cells

{"columns": ["Compound", "Test target", "IC50"],
 "data": [
  ["C[C@@H]1C[C@@H](c2c[nH]nc2F)CN(c2ccnc(-c3cnc4cnc(C(F)(F)F)cn34)n2)C1 [IV-765]", "intracellular GCN2 (phosphorylation of the GCN2 substrate eIF2α) (Homo sapiens)", "< 500 nM"],
  ["CC1CN(c2ccnc(-c3cnc4cnc(Cl)cn34)n2)CC(c2cn[nH]c2)N1 (single isomer, unassigned) [IV-214]", "intracellular GCN2 (phosphorylation of the GCN2 substrate eIF2α) (Homo sapiens)", "< 500 nM"],
  ["FC(F)(F)c1cn2c(-c3nccc(N4CCCC(c5cn[nH]c5)C4)n3)cnc2cn1 (single isomer, unassigned) [IV-546]", "intracellular GCN2 (phosphorylation of the GCN2 substrate eIF2α) (Homo sapiens)", "< 500 nM"],
  ["CC1CN(c2ccnc(-c3cnc4cnc(C(F)(F)F)cn34)n2)CC(c2cn[nH]c2)O1 (single isomer, unassigned) [IV-15]", "intracellular GCN2 (phosphorylation of the GCN2 substrate eIF2α) (Homo sapiens)", "500 to 5000 nM"]
]}

###

Test target: intracellular GCN2 (phosphorylation of the GCN2 substrate eIF2α) (Homo sapiens, UniProt Q9P2K8)
Sequence (Q9P2K8 whole entry): as above
Run description: GCN2 cellular inhibition assay (AlphaScreen SureFire P-eIF2α Ser51, borrelidin-treated U2OS cells)
Format: cell-based
Condition description: compounds of Formula IV; biomarker assay, phosphorylated eIF2α Ser51 in borrelidin-treated U2OS cells
pIC50: −log10 of the molar value.
Quantity kind: pIC50

{"columns": ["Molecule", "Test result"],
 "data": [
  ["CC1CN(c2ccnc(-c3cnc4cnc(Cl)cn34)n2)CC(c2cn[nH]c2)N1 (single isomer, unassigned) [IV-213]", "5.30 to 6.30"],
  ["CC1C(c2cn[nH]c2)CCCN1c1ccnc(-c2cnc3cnc(C(F)(F)F)cn23)n1 (single isomer, unassigned) [IV-420]", "> 6.30"],
  ["FC(F)(F)c1cn2c(-c3nccc(N4CCCC(C5CNC5)C4)n3)cnc2cn1 (centres unmarked)", "< 5.30"],
  ["O=C1CCCC2CN(c3ccnc(-c4cnc5cnc(C(F)F)cn45)n3)CCN12 (centres unmarked)", "< 5.30"],
  ["FC(F)(F)c1cn2c(-c3nccc(N4CCOC(c5cn[nH]c5)C4)n3)cnc2cn1 (centres unmarked) [IV-3]", "> 6.30"],
  ["NC(=O)C1COCCN(c2ccnc(-c3cnc4cnc(C(F)F)cn34)n2)C1 (centres unmarked) [IV-128]", "< 5.30"],
  ["C[C@H]1CN(c2ccnc(-c3cnc4cnc(C(F)(F)F)cn34)n2)C[C@@H](c2c[nH]cn2)N1 (racemic)", "5.30 to 6.30"],
  ["Cc1nc(C2CCCN(c3ccnc(-c4cnc5cnc(Br)cn45)n3)C2)c[nH]1 (single isomer, unassigned) [IV-374]", "5.30 to 6.30"],
  ["CS(C)(=O)=NC1CC(c2cn[nH]c2)CN(c2ccnc(-c3cnc4cnc(C(F)(F)F)cn34)n2)C1 (single isomer, unassigned) [IV-400]", "< 5.30"],
  ["O=C(N[C@H]1CCCN(c2ccnc(-c3cnc4cnc(C(F)(F)F)cn34)n2)C1)c1cn[nH]c1", "< 5.30"],
  ["CNc1cc(N2CC(C)NC(c3cn[nH]c3)C2C)nc(-c2cnc3cnc(C(F)(F)F)cn23)n1 (centres unmarked)", "5.30 to 6.30"],
  ["FC(F)(F)c1cn2c(-c3nccc(N4CCC5(CC4)CNC5)n3)cnc2cn1", "< 5.30"],
  ["Brc1cn2c(-c3nccc(N4CCNC(c5cn[nH]c5)C4)n3)cnc2cn1 (centres unmarked)", "5.30 to 6.30"],
  ["CN([C@H]1CCN(c2ccnc(-c3cnc4cnc(C(F)F)cn34)n2)C1)S(C)(=O)=O", "< 5.30"],
  ["CC1CN(c2ccnc(-c3cnc4cnc(C#N)cn34)n2)CC(c2cn[nH]c2)O1 (single isomer, unassigned) [IV-191]", "5.30 to 6.30"],
  ["COCC1CCCN(c2ccnc(-c3cnc4cnc(C(F)(F)F)cn34)n2)C1 (centres unmarked)", "< 5.30"],
  ["CC1C(c2cn[nH]c2)NCCN1c1ccnc(-c2cnc3cnccn23)n1 (centres unmarked)", "< 5.30"],
  ["CN(C1CCCN(c2ccnc(-c3cnc4cnc(C(F)F)cn34)n2)C1)S(C)(=O)=O (centres unmarked)", "< 5.30"],
  ["FC(F)(F)c1cn2c(-c3nccc(N4CCNC(c5cn[nH]c5)C4)n3)cnc2cn1 (centres unmarked)", "5.30 to 6.30"],
  ["CNC(=O)c1cc(C2CCCN(c3ccnc(-c4cnc5cnc(C(F)F)cn45)n3)C2)n[nH]1 (centres unmarked)", "< 5.30"],
  ["CC1CN(c2ccnc(-c3cnc4cnc(C(F)(F)F)cn34)n2)CC(c2cn[nH]c2)O1 (single isomer, unassigned) [IV-16]", "5.30 to 6.30"],
  ["Brc1cn2c(-c3nccc(N4CCCC(c5cn[nH]c5)C4)n3)cnc2cn1 (single isomer, unassigned) [IV-361]", "> 6.30"],
  ["OCC12CC1CN(c1ccnc(-c3cnc4cnc(C(F)F)cn34)n1)C2 (centres unmarked)", "< 5.30"],
  ["CC1C(c2cn[nH]c2)CCCN1c1ccnc(-c2cnc3cnc(C(F)(F)F)cn23)n1 (single isomer, unassigned) [IV-419]", "5.30 to 6.30"],
  ["Cc1n[nH]cc1[C@H]1C[C@H](O)CN(c2ccnc(-c3cnc4cnc(C(F)(F)F)cn34)n2)C1", "< 5.30"],
  ["FC(F)c1cn2c(-c3nccc(N4CCCCCC4)n3)cnc2cn1", "< 5.30"],
  ["CC1C(c2cn[nH]c2)CCN1c1ccnc(-c2cnc3cnc(C(F)(F)F)cn23)n1 (centres unmarked) [IV-688]", "5.30 to 6.30"],
  ["FC(F)c1cn2c(-c3nccc(N4CCC(c5cc[nH]n5)C4)n3)cnc2cn1 (centres unmarked)", "< 5.30"],
  ["CC(=O)N1CCN(c2ccnc(-c3cnc4cnc(C(N)=O)cn34)n2)CC1", "< 5.30"],
  ["NC(=O)C1CCCN(c2ccnc(-c3cnc4cnc(C(F)(F)F)cn34)n2)C1 (centres unmarked)", "5.30 to 6.30"],
  ["NCCC1CCCN(c2ccnc(-c3cnc4cnc(C(F)(F)F)cn34)n2)C1 (centres unmarked)", "< 5.30"],
  ["NS(=O)(=O)C1CCCN(c2ccnc(-c3cnc4cnc(C(F)F)cn34)n2)C1 (centres unmarked) [IV-56]", "< 5.30"]
]}
